// data source = a melting point compilation (Tetko et al.; mined from patent text by program, amines drawn as free bases though some values may be those of a salt)

valueType: melting point

Please review the entries below; each comes with its answer.
# molecule, valueType, result
records = [
    ("C=CC(=O)NCC(=O)O", "melting point", "124 to 126 °C"),
    ("Cn1nc(C(=O)O)cc1OCCCN1CCN(c2cccc3sccc23)CC1", "melting point", "114 to 118 °C"),
    ("C[C@@H]1CN(C(=O)OC(C)(C)C)Cc2cc3cc(F)cnc3n21", "melting point", "85 to 87 °C"),
    ("O=C(c1ccc(F)cc1)C1CCN(CC2CC(c3ccc4[nH]c(=O)oc4c3)=NO2)CC1 (stereo not given)", "melting point", "188 to 190 °C"),
    ("O=C(Oc1ccccc1Br)c1cc(-c2ccccc2)cn1CCc1ccccc1Br", "melting point", "90 to 92 °C"),
    ("O=c1[nH]c2ccc(Cl)cc2n1CC1CCCCC1", "melting point", "62 °C"),
    ("CNCC1Cc2cc(-c3ccccc3)cc(-c3ccc(Cl)cc3)c2O1 (stereo not given)", "melting point", "> 250 °C"),
    ("CCCN1CCC(O)(c2cc(F)cc(F)c2)C1 (stereo not given)", "melting point", "117 to 118 °C"),
]

Query string: Determine its reported melting point: N#CC(Nc1ccc(SSc2ccc(NC(C#N)c3ccc(S(N)(=O)=O)cc3)cc2)cc1)c1ccc(S(N)(=O)=O)cc1 (stereo not given)
Result string: 251 to 255 °C

Query string: Determine its reported melting point: CSc1onc(-c2ccccc2)c1-c1ccc(S(N)(=O)=O)cc1
Result string: 135 to 137 °C

----------
valueType: melting point (°C)
Write down the numeric answer in °C and omit the unit.

Query string: Determine its reported melting point: CCOc1ccc2c(c1)C(C)(c1cccc(O)c1)C(=O)N2S(=O)(=O)c1ccc(C(=O)NC(C)(C)C)cc1 (centres undefined)
Result string: 196

----------
valueType: melting point

Please review the entries below; each comes with its answer.
# compound, result
records = [
    ("O=Cc1ccc2c(ccc3ccccc32)c1", "58 to 60 °C"),
    ("O=C(NCCCCN1CCC(c2ccc3c(c2OCCO)CCCC3)CC1)c1ccc(-c2ccc(Cl)cc2)cc1", "162 °C"),
    ("Cc1ccc(/C=C/c2nc(COc3ccc(CCCCn4ccnc4CCO)cc3)co2)cc1", "108 to 109 °C"),
    ("Cn1c(C(F)(F)F)cc(=O)n(-c2cc(OCCNC=O)c(Cl)cc2F)c1=O", "128 to 131 °C"),
    ("O=c1[nH]nc(C(F)(F)F)s1", "54 to 55 °C"),
]

Query string: Determine its reported melting point: Clc1ccc(N2CCN=C2C(Cn2cncn2)c2ccccc2)c(Cl)c1 (stereo unspecified)
Result string: 78 to 82 °C

----------
Items are presented alongside their recorded melting point.

Please review the entries below; each comes with its answer.
# molecule, result
measured = [
    ("COc1ccc(C2=NN(CCCCCCN3C(=O)c4ccccc4C3=O)C(=O)[C@H]3CC=CC[C@@H]23)cc1OC (relative stereo)", "104 to 105 °C"),
    ("CCC1(CC)CN(C(C)(C)C)C(=O)C(CC)(CC)N1OCc1ccccc1", "83 to 85 °C"),
    ("CC(C)c1nn(-c2ccc(C(F)(F)F)cn2)cc1CCCOc1cc(CCC(=O)O)n(C(C)C)n1", "130 to 131 °C"),
    ("O=C(c1ccccc1)N1CCc2cc(S(=O)(=O)N3CC(c4ccccc4)NC3=O)ccc21 (centres undefined)", "127 °C"),
]

Query string: Determine its reported melting point: CCN[C@@H]1CCCC[C@H]1NS(=O)(=O)c1ccc(C)cc1 (relative stereo)
Result string: 112 to 114 °C

Query string: Determine its reported melting point: CC(C)(C)c1cc(C[C@@H]2N[C@@H](c3ccccc3)[C@@H](c3ccccc3)OC2=O)ccc1O
Result string: 76 to 80 °C

Query string: Determine its reported melting point: CC(N)C(O)(c1ccccc1)c1ccccc1 (centres undefined)
Result string: 44 to 45 °C

Query string: Determine its reported melting point: CCCc1c(SC(=O)N(C)C)ccc(C(C)=O)c1OCCCC(=O)OCC
Result string: 60 to 63 °C

Query string: Determine its reported melting point: CSC(=S)C1(c2ccccn2)SCCCS1
Result string: 91 °C

Query string: Determine its reported melting point: COc1ccc(N2C(=O)C3=C(SCCO3)C2=O)nn1
Result string: 157 °C

Query string: Determine its reported melting point: COc1ccc(-c2nc(Sc3ncccn3)[nH]c2-c2ccc(OC)cc2)cc1
Result string: 86 °C

Query string: Determine its reported melting point: CNC(=O)c1cccc(C)c1Nc1nc(Nc2ccc3c(c2)C(=O)NCCC3)ncc1Cl
Result string: 259 °C

Query string: Determine its reported melting point: CC(C)CCc1ccc(C=CC(O)=S)cc1
Result string: 132 to 133 °C

Query string: Determine its reported melting point: CCCc1oc2ccc([N+](=O)[O-])cc2c1C(=O)c1ccc(O)cc1
Result string: 119 °C

Query string: Determine its reported melting point: COC(=O)C(CCc1ccc(C#N)cc1)C(N)=O (centres undefined)
Result string: 125 °C

Query string: Determine its reported melting point: COc1cc(Nc2nccc(-c3sc(CO)nc3C)n2)ccc1N1CCOCC1
Result string: 180 to 181 °C

----------
Items are presented alongside their recorded melting point.

Please review the entries below; each comes with its answer.
# compound, result
measured = [
    ("CC(=O)Nc1ncc2c(n1)-c1sc(NC(C)=O)nc1CC2", "> 310 °C"),
    ("Cc1ccc(CC(C(=O)c2ccccc2)N2CCCCC2)cc1 (stereo not given)", "71 to 72 °C"),
]

Query string: Determine its reported melting point: CC(C)(C)OC(=O)c1nc(-c2ccccc2)[nH]c1-c1ccncc1
Result string: 205 to 206 °C

----------
valueType: melting point

# compound, melting point
records = [
    ("NC1CCN(c2ncc3ncnc(Nc4ccc(OCc5ccccc5)cc4)c3n2)CC1", "150 °C"),
]

Query string: Determine its reported melting point: CCOc1ccc(CC(NC(C)=O)C(=O)O)cc1OCC (stereo not given)
Result string: 149 to 151 °C

Query string: Determine its reported melting point: COc1ccccc1C=C1NC(=O)N(C)C1=O
Result string: 189 to 190 °C

Query string: Determine its reported melting point: Cc1ccc2c(NCc3ccc(NC(=O)C4CCN(Cc5ccccc5)CC4)cc3)nc(N(C)C)nc2c1
Result string: 100 °C

Query string: Determine its reported melting point: CCOC(=O)c1sc(SC(C)C)c2c1CCC(Br)C2=O (stereo not given)
Result string: 107 to 108 °C

Query string: Determine its reported melting point: C=CC(=O)OC(COc1ccc(C(=O)c2ccccc2)c(O)c1)COc1ccc(C(=O)c2ccccc2)c(O)c1
Result string: 98 to 100 °C

Query string: Determine its reported melting point: CSc1ccc(F)cc1C(C)=O
Result string: 82 to 84.3 °C

Query string: Determine its reported melting point: COc1ccc2cnc(Nc3ccc(F)c(C)c3)nc2c1C1CCCC1
Result string: 208 to 209 °C

Query string: Determine its reported melting point: COC(=O)C(=O)c1ccc(OCCOc2ccc3cc4ccccc4cc3c2)cc1
Result string: 188 to 189 °C

Query string: Determine its reported melting point: O=c1nc(-c2ccco2)sc2ccccc12
Result string: 170 to 172 °C

Query string: Determine its reported melting point: O=C1CCC(=O)N1Cn1nnc(-c2ccnc(-c3nnn(CN4C(=O)CCC4=O)n3)c2)n1
Result string: 190 to 192 °C

Query string: Determine its reported melting point: CCCCCCCCCCCCCCCCSCC1(CNS(=O)(=O)CCCCl)CCCO1 (stereo not given)
Result string: 44.5 to 45.5 °C

Query string: Determine its reported melting point: CCOC(=O)N(CC(=O)O)C(=O)c1c(OCC(F)(F)F)ccc2c(C(F)(F)F)c(OC)ccc12
Result string: 166 to 167 °C

----------
Items are presented alongside their recorded melting point.

Please review the entries below; each comes with its answer.
# molecule, melting point
measured = [
    ("CCCCCCCC/C=C\\c1ccc(C(=O)NOCc2ccccc2)cc1", "70 to 71 °C"),
    ("Cc1nn(S(=O)Oc2ccccc2)c2ccccc12 (configuration not stated)", "141 to 143 °C"),
    ("N#CC=C1CCN(c2ccc(N3C[C@@H](Cn4cc(CCC(=O)O)nn4)OC3=O)cc2)CC1", "120 to 122 °C"),
    ("Nc1nc(NC2CCc3ccccc32)c2ncn(C3OC(CO)C(O)C3O)c2n1 (configuration not stated)", "143 to 146 °C"),
    ("CCOC(=O)COc1ccc(C(=O)c2ccn[nH]2)c(Cl)c1Cl", "147 to 149 °C"),
    ("COCOc1ccc(CSc2cnn(C(C)(C)C)c(=O)c2Cl)cc1", "50 to 54 °C"),
    ("COC(=O)COc1c(C)cc(SCc2ccc(-c3ccc(C(F)(F)F)cn3)cc2)c2c1CCO2", "94 to 95 °C"),
    ("Cc1ccc2c(c1)C=Cc1cc(C)ccc1C2c1cn(-c2cc(N(C)CC(=O)Nc3nc(CC(=O)O)cs3)ncn2)c(=O)[nH]c1=S", "215 °C"),
]

Query string: Determine its reported melting point: CCCCCCn1cnc2cnc3ccccc3c21
Result string: 75 to 77 °C

Query string: Determine its reported melting point: Cc1cnc2n(c1=O)CCC2
Result string: 82 °C

Query string: Determine its reported melting point: CC(=O)OC1CSC(Oc2cncc(-c3ccc(F)c(C)c3)c2)C(OC(C)=O)C1OC(C)=O (configuration not stated)
Result string: 161 °C

Query string: Determine its reported melting point: O=C(O)Cc1c(C(=O)c2ccc(F)cc2)[nH]c2cc(Cl)ccc12
Result string: 181 to 183 °C

Query string: Determine its reported melting point: COC(=O)/C=C/n1cnc2ccc(SC)cc2c1=O
Result string: 170 °C

Query string: Determine its reported melting point: C[C@@H](NC(=O)[C@H](Cc1ccc(OC(C)(C)C)cc1)N(C)C(=O)OC(C)(C)C)C(=O)O
Result string: 109 to 110 °C

Query string: Determine its reported melting point: Cc1oc(-c2ccccc2)nc1COc1ccc(CO)cn1
Result string: 121 to 122 °C

Query string: Determine its reported melting point: CC(C)C(=O)c1cccc([N+](=O)[O-])c1
Result string: 33 to 35 °C

Query string: Determine its reported melting point: COC(=O)C=C(C)c1ccc2c(ccn2S(=O)(=O)c2ccccc2)c1
Result string: 80 to 85 °C

Query string: Determine its reported melting point: COc1nc2ccccc2cc1/C=C/c1cc(CN2CCN(S(C)(=O)=O)CC2)ccc1[N+](=O)[O-]
Result string: 156 to 157 °C

Query string: Determine its reported melting point: CCOC(=O)C1=NN(c2ccc(Cl)cc2)C(c2ccc(Cl)cc2)C1 (configuration not stated)
Result string: 128 to 130 °C
